Hey, just so you know, these numbers are from ChEMBL document CHEMBL3407414.

- Tested on: human MDR1
- PROTOCOL TEXT: Apparent permeability from apical to basolateral side of MDCK2 cells expressing human MDR1 at 10 uM
- Format: ADME, cell-based, Canis lupus familiaris, MDCK-II
- STUDY CONDITIONS: dog, MDCK-MDR1
QUANTITY: Papp A→B at 10 µM (×10⁻⁶ cm/s)
One number for each entry, in ×10⁻⁶ cm/s.

Worked set:
{"CHEMICAL SMILES": "C[C@H]1COCCN1c1cc(C2(S(=O)(=O)c3ccccc3)CC2)nc(-c2ccc(NC(=O)NCCCO)cc2)n1", "ASSAY SYSTEM": "human MDR1", "QUANTITY": "Papp A→B at 10 µM", "RESULT": 0.15}
{"CHEMICAL SMILES": "C[C@H]1COCCN1c1cc(C2(S(=O)(=O)c3ccccc3)CC2)nc(-c2ccc(NC(=O)NCCO)cc2)n1", "ASSAY SYSTEM": "human MDR1", "QUANTITY": "Papp A→B at 10 µM", "RESULT": 0.18}
{"CHEMICAL SMILES": "C[C@H]1COCCN1c1cc(C2(S(C)(=O)=O)CC2)nc(-c2ccc(NC(=S)NCCO)cc2)n1", "ASSAY SYSTEM": "human MDR1", "QUANTITY": "Papp A→B at 10 µM", "RESULT": 0.07}

Give Papp A→B at 10 µM for all compounds that follow.
1. C[C@H]1COCCN1c1cc(C2(S(=O)(=O)C3CC3)CC2)nc(-c2ccc(NC(=S)NCCO)cc2)n1
2. C[C@H]1COCCN1c1cc(C2(S(=O)(=O)CCCO)CC2)nc(-c2ccc(NC(=S)NC3CC3)cc2)n1

Result:
1. 5.6
2. 0.18

---

- PROTOCOL TEXT: Half life in CD-1 mouse
- Type: ADME, organism-based
- STUDY CONDITIONS: in vivo
QUANTITY: half-life
Kindly format the answer as number then unit.

Ask: Identify measured half-life associated with C[C@H]1COCCN1c1cc(C2(S(=O)(=O)C3CC3)CC2)nc(-c2ccc(NC(=S)NCCO)cc2)n1
Result: 54 min

---

- PROTOCOL TEXT: Oral bioavailability in CD-1 mouse at 5 to 20 umol/kg
- Type: ADME, organism-based
- STUDY CONDITIONS: in vivo
QUANTITY: bioavailability (%)
One number for each entry, in %.

Ask: Identify measured bioavailability associated with C[C@H]1COCCN1c1cc(C2(S(=O)(=O)C3CC3)CC2)nc(-c2ccc(NC(=S)NCCO)cc2)n1
Result: 61

---

Please respond with reported logD for every item in the list.
- PROTOCOL TEXT: Lipophilicity, log D of the compound
- Type: physicochemical
- STUDY CONDITIONS: octanol/water

Worked set:
{"CHEMICAL SMILES": "C[C@H]1COCCN1c1cc(C2(S(=O)(=O)c3ccccc3)CC2)nc(-c2ccc(NC(=O)NCCCO)cc2)n1", "RESULT": 2.85}
{"CHEMICAL SMILES": "C[C@H]1COCCN1c1cc(C2(S(=O)(=O)CCCO)CC2)nc(-c2ccc(NC(=S)NC3CC3)cc2)n1", "RESULT": 2.2}
{"CHEMICAL SMILES": "C[C@H]1COCCN1c1cc(CS(C)(=O)=O)nc(-c2ccc(NC(=O)Nc3ccc(F)cc3)cc2)n1", "RESULT": 3.8}
{"CHEMICAL SMILES": "COc1ccc(CNC(=O)Nc2ccc(-c3nc(CS(C)(=O)=O)cc(N4CCOC[C@@H]4C)n3)cc2)cc1", "RESULT": 2.8}
{"CHEMICAL SMILES": "C[C@H]1COCCN1c1cc(C2(S(=O)(=O)C3CC3)CC2)nc(-c2ccc(NC(=O)NCCO)cc2)n1", "RESULT": 2.1}

Give logD for all molecules that follow.
1. CNC(=O)Nc1ccc(-c2nc(N3CCOC[C@@H]3C)cc(C3(S(=O)(=O)c4ccncc4)CC3)n2)cc1
2. C[C@H]1COCCN1c1cc(C2(S(=O)(=O)C3CC3)CC2)nc(-c2ccc(NC(=O)NC3CC3)cc2)n1
3. CNC(=O)Nc1ccc(-c2nc(CS(=O)(=O)c3ccccc3)cc(N3CCOC[C@@H]3C)n2)cc1

Result:
[2.5, 2.94, 2.65]
